molecular target: Botulinum neurotoxin type A (Clostridium botulinum); assay: BoNT/A light chain protease inhibitors, biochemical, multiplex microsphere flow cytometry, validation set (AID 588460); conditions: at 10 µM, active compounds read high
Consider the following molecules; for each one, report its inhibition.
API: value field is a number in %; no unit string.

Consider the molecule shown here: Cn1c(=O)c2c(nc(SCCN3CCCCC3)n2C)n(C)c1=O What is its recorded inhibition?
0.2

Consider the molecule shown here: Cc1cccc(-c2ncc(CN3CCN(CC(C)C)C(CCO)C3)cn2)c1 (stereo not given) What is its recorded inhibition?
0.9

Consider the molecule shown here: Cc1ccc(OCc2nc(-c3cccnc3)no2)cc1C What is its recorded inhibition?
0.4

Consider the molecule shown here: COc1cc(C2Nc3ccccc3NC3=C2C(=O)CC(c2ccc(OC)c(OC)c2)C3)ccc1O (stereo not given) What is its recorded inhibition?
-0.9

Consider the molecule shown here: O=C1C(=O)N2C(=C1C(=O)N1CCCCCC1)c1ccccc1CC21CCCC1 What is its recorded inhibition?
0.4

Consider the molecule shown here: O=C1CCCC(=O)C1=Cc1c[nH]c2ccccc12 What is its recorded inhibition?
0.4

Consider the molecule shown here: C[C@]12CCC(=O)C=C1CC[C@@H]1[C@@H]2C(=O)C[C@@]2(C)[C@H]1CC[C@]2(O)C(=O)CO What is its recorded inhibition?
-1.7

Consider the molecule shown here: CC[n+]1c(C)sc2cc(C)ccc21 What is its recorded inhibition?
1.9

Consider the molecule shown here: Cn1cc(C2N3CC4(C)CN2CC(C)(C3)C4=O)c2ccccc21 (stereo not given) What is its recorded inhibition?
1.7

Consider the molecule shown here: COc1cccc(C2CC(=O)C3=C(C2)Nc2ccccc2N(C(=O)CCC(=O)O)C3c2ccc(F)cc2)c1 (stereo not given) What is its recorded inhibition?
0.4
